Test system: Rattus norvegicus
Assay: Toxic ulcerogenic effect in albino rat assessed as incidence of ulcer at 200 mg/kg, po
Type: toxicity, organism-based
Parameters: dose 200 mg/kg, route oral
Settings: in vivo

chemical string: Cc1cc(OCC2=NCCO2)ccc1Cl
Activity: 30%

chemical string: Cc1ccccc1OCC1=NCCO1
Activity: 20%

chemical string: Fc1ccccc1OCC1=NCCO1
Activity: 15%

chemical string: Clc1ccccc1OCC1=NCCO1
Activity: 30%

chemical string: Cc1cccc(OCC2=NCCO2)c1
Activity: 20%

chemical string: Brc1ccc(OCC2=NCCO2)cc1
Activity: 10%

chemical string: Brc1ccccc1OCC1=NCCO1
Activity: 20%

chemical string: O=[N+]([O-])c1ccc(OCC2=NCCO2)cc1
Activity: 15%

chemical string: O=[N+]([O-])c1ccccc1OCC1=NCCO1
Activity: 25%

chemical string: COc1ccc(OCC2=NCCO2)cc1
Activity: 10%

chemical string: Clc1ccc(OCC2=NCCO2)cc1
Activity: 20%

chemical string: Cc1ccc(OCC2=NCCO2)c(C)c1
Activity: 25%

chemical string: Fc1ccc(OCC2=NCCO2)cc1
Activity: 25%

chemical string: CCCCC1C(=O)N(c2ccccc2)N(c2ccccc2)C1=O
Activity: 60%

chemical string: O=[N+]([O-])c1cccc(OCC2=NCCO2)c1
Activity: 30%

chemical string: CC(=O)Oc1ccccc1C(=O)O
Activity: 90%

---

Tested on: Rattus norvegicus
Assay: Toxic ulcerogenic effect in albino rat assessed as incidence of hyperemia at 100 mg/kg, po
Type: toxicity, organism-based
Set-up: dose 100 mg/kg, route oral
Details: in vivo
measurement label: Activity (%)

compound: CC(=O)Oc1ccccc1C(=O)O [ASPIRIN]
study system: Rattus norvegicus
result value: 30

compound: Clc1ccccc1OCC1=NCCO1
study system: Rattus norvegicus
result value: 20

compound: Brc1ccccc1OCC1=NCCO1
study system: Rattus norvegicus
result value: 70

compound: Cc1cccc(OCC2=NCCO2)c1
study system: Rattus norvegicus
result value: 50

compound: Cc1ccccc1OCC1=NCCO1
study system: Rattus norvegicus
result value: 40

compound: Brc1ccc(OCC2=NCCO2)cc1
study system: Rattus norvegicus
result value: 60

compound: COc1ccc(OCC2=NCCO2)cc1
study system: Rattus norvegicus
result value: 50

compound: Clc1ccc(OCC2=NCCO2)cc1
study system: Rattus norvegicus
result value: 30

compound: Cc1cc(OCC2=NCCO2)ccc1Cl
study system: Rattus norvegicus
result value: 50

compound: O=[N+]([O-])c1ccccc1OCC1=NCCO1
study system: Rattus norvegicus
result value: 30

compound: O=[N+]([O-])c1cccc(OCC2=NCCO2)c1
study system: Rattus norvegicus
result value: 20

compound: O=[N+]([O-])c1ccc(OCC2=NCCO2)cc1
study system: Rattus norvegicus
result value: 50

compound: Fc1ccc(OCC2=NCCO2)cc1
study system: Rattus norvegicus
result value: 25

compound: CCCCC1C(=O)N(c2ccccc2)N(c2ccccc2)C1=O [PHENYLBUTAZONE]
study system: Rattus norvegicus
result value: 30

compound: Cc1ccc(OCC2=NCCO2)c(C)c1
study system: Rattus norvegicus
result value: 25

compound: Fc1ccccc1OCC1=NCCO1
study system: Rattus norvegicus
result value: 40

---

Test system: Rattus norvegicus
Test: Toxic ulcerogenic effect in albino rat assessed as incidence of hyperemia at 400 mg/kg, po
Assay type: toxicity, organism-based
Design: dose 400 mg/kg, route oral
Conditions: in vivo
In this section we review reported Activity values for a set of compounds.

chemical string: Clc1ccccc1OCC1=NCCO1
study system: Rattus norvegicus
Activity [%]: 60

chemical string: COc1ccc(OCC2=NCCO2)cc1
study system: Rattus norvegicus
Activity [%]: 90

chemical string: Brc1ccc(OCC2=NCCO2)cc1
study system: Rattus norvegicus
Activity [%]: 100

chemical string: O=[N+]([O-])c1cccc(OCC2=NCCO2)c1
study system: Rattus norvegicus
Activity [%]: 55

chemical string: Fc1ccc(OCC2=NCCO2)cc1
study system: Rattus norvegicus
Activity [%]: 50

chemical string: CC(=O)Oc1ccccc1C(=O)O
study system: Rattus norvegicus
Activity [%]: 90

chemical string: O=[N+]([O-])c1ccccc1OCC1=NCCO1
study system: Rattus norvegicus
Activity [%]: 90

chemical string: Cc1ccc(OCC2=NCCO2)c(C)c1
study system: Rattus norvegicus
Activity [%]: 75

chemical string: Clc1ccc(OCC2=NCCO2)cc1
study system: Rattus norvegicus
Activity [%]: 90

chemical string: Cc1cc(OCC2=NCCO2)ccc1Cl
study system: Rattus norvegicus
Activity [%]: 100

chemical string: O=[N+]([O-])c1ccc(OCC2=NCCO2)cc1
study system: Rattus norvegicus
Activity [%]: 100

chemical string: Fc1ccccc1OCC1=NCCO1
study system: Rattus norvegicus
Activity [%]: 80

chemical string: Cc1ccccc1OCC1=NCCO1
study system: Rattus norvegicus
Activity [%]: 100

chemical string: CCCCC1C(=O)N(c2ccccc2)N(c2ccccc2)C1=O
study system: Rattus norvegicus
Activity [%]: 90

chemical string: Brc1ccccc1OCC1=NCCO1
study system: Rattus norvegicus
Activity [%]: 100

chemical string: Cc1cccc(OCC2=NCCO2)c1
study system: Rattus norvegicus
Activity [%]: 90
